system_tested: human γδ TCR (Vγ9Vδ2) on human Vδ2+ γδ T cells (human) (UniProt A0JD36)
experiment_summary: flow cytometry on expanded human Vδ2+ γδ T cells, nonlinear fit
outcome_measure: pKd
As a rule, pKd stands for the negative log10 of the concentration, concentration in M.

# input binder: hu1D7v19 VHH-hIgG1 Fc-NNT (monomeric) (VHH) VHH: EVQLLESGGGEVQPGGSLRLSCVASRGKISQYRMGWYRQAPGKGLEWVAHISNTGDAAEYVDSVKDRFTISRDSTKNAVYLQMSSLRAEDTAVYKCNSVEDILAWGQGTLVTVKP ; wanted: its pKd
7.57

Query hu1D7v83 VHH-hIgG1 Fc-NNT (monomeric) (VHH) VHH: EVQLLESGGGEVQPGGSLRLSCVASRGKISQYRMGWYRQAPGKERELVAHISNTGDAAEYVDGVKDRFTISRDSTKNALYLQMSSLRAEDTAVYKCNSVEDILAWGQGTLVTVRP next
7.44

Here is the next binder: hu1D7v38 VHH-hIgG1 Fc-NNT (monomeric) (VHH) VHH: EVQLLESGGGEVQPGGSLRLSCVASRGKISQYRMGWYRQAPGKELEWVAHISNTGDAAEYVDSVKGRFTISRDSTKNAVYLQMSSLRAEDTAVYKCNVVEDILAWGQGTLVTVKP
4.70

What do you have for hu1D7v158-3 VHH-hIgG1 Fc-NNT (monomeric) (VHH) VHH: EVQLLESGGGEVQPGGSLRLSCVASRGKISQYRMGWYRQAPGKQRELVAAISNTGDAAEYVAPVKGRFTISRDNAKNALYLQMNSLRAEDTAVYKCNTVEDILAWGQGTLVTVEP ?
7.55

Thanks! And hu1D7v81 VHH-hIgG1 Fc-NNT (monomeric) (VHH) VHH: EVQLLESGGGEVQPGGSLRLSCVASRGKISQYRMGWYRQAPGKERELVAHISNTGDAAEYVDSVKDRFTISRDSTKNALYLQMSSLRAEDTAVYKCASVEDILAWGQGTLVTVRP ?
6.07

And then hu1D7v57 VHH-hIgG1 Fc-NNT (monomeric) (VHH) VHH: EVQLLESGGGEVQPGGSLRLSCVASRGKISQYRMGWYRQAPGKERELVAHISNTGDAAEYVDSVKGRFTISRDSTKNALYLQMSSLRAEDTAVYKCNSVEDILAWGQGTLVTVRP , what is it?
7.98

The reported measurements were obtained from patent US20250109203A1.
